System: MDA-MB-231
Assay comment: Cytotoxicity against human MDA-MB-231 cells in presence of 20 uM chloroquine by SRB assay relative to control
Type: functional
Measure: Activity (%)
One number for each entry, in %.

A selection of reference data follows.
Structure notation: CCCCCCCCCCCCCCCCCCOC[C@H](COP(=O)(O)O[C@@H]1CC[C@@H](O)[C@H](O)[C@H]1O)OC
Subject of test: MDA-MB-231
Activity, %: 3

Structure notation: CCCCCCCCCCCCCCCCCCOC[C@H](COP(=O)(O)O[C@H]1[C@H](O)[C@@H](O)[C@H](O)C[C@H]1OC)OC
Subject of test: MDA-MB-231
Activity, %: 56

Structure notation: O=c1cc(N2CCOCC2)oc2c(-c3ccccc3)cccc12
Subject of test: MDA-MB-231
Activity, %: 49

Structure notation: O=c1[nH]c2ccccc2n1C1CCN(Cc2ccc(-c3nc4cc5[nH]cnc5cc4nc3-c3ccccc3)cc2)CC1
Subject of test: MDA-MB-231
Activity, %: 55

Structure notation: CC[n+]1c(/C=C/N(C)c2ccccc2)n(-c2ccccc2)c2ccc(-c3nc4ccccc4s3)cc21
Subject of test: MDA-MB-231
Activity, %: 70

Return reported Activity values for all items listed beneath this line.
1. CCCCCCCCCCCCCCCCCCOC[C@H](COC(=O)O[C@H]1[C@H](O)[C@@H](O)[C@H](O)[C@H](CO)[C@H]1O)OC
2. CC(=O)[O-].COc1ccc2[nH]c3c(C)c4cc[n+](C)cc4c(C)c3c2c1

1. 1
2. 34
